System: Rat Liver Microsome
assay-text: Activity to Inhibit Hyperoxidation of Lipid of Rat Liver Microsome (thiobarbituric acid method)
Assay type: biochemical
condition-info: 10^-5 M, pH 7.4, 37° C., 20 minutes, versus solvent (DMF) alone; 10 µM
Description: Activity to Inhibit Hyperoxidation of Lipid of Rat Liver Microsome A rat liver microsome was prepared according to a conventional method, and suspended in 1.15% KCl to obtain a microsome suspension. […] Thereafter, according to a thiobarbituric acid method, the above mixtures were measured for an amount of peroxide lipid formed. […]
reported-metric: Lipid hyperoxidation inhibition ratio (%)
Kindly answer with a numeric value in %, unit omitted.

The measured Lipid hyperoxidation inhibition ratio (%) associated with CCCCCCCCOC1=C(O)C(=O)O[C@@H]1[C@@H](O)CO [(c), reference compound] reads 40

The measured Lipid hyperoxidation inhibition ratio (%) associated with CCCCCCCCCCCCCCCCC(=O)COC1=C(O)C(=O)O[C@@H]1[C@@H](O)CO [(b), reference compound] reads 43

The measured Lipid hyperoxidation inhibition ratio (%) associated with CCCCCCC(=O)COC1=C(O)C(=O)O[C@@H]1[C@@H](O)CO [(a), reference compound] reads 27

The measured Lipid hyperoxidation inhibition ratio (%) associated with CCCCCCCCCCCCCCCCCCOC1=C(O)C(=O)O[C@@H]1[C@@H](O)CO [(d), reference compound] reads 45
